Give IC50 for every item shown.
Assayed Target: UniProt:P23977
Sequence (P23977 whole entry): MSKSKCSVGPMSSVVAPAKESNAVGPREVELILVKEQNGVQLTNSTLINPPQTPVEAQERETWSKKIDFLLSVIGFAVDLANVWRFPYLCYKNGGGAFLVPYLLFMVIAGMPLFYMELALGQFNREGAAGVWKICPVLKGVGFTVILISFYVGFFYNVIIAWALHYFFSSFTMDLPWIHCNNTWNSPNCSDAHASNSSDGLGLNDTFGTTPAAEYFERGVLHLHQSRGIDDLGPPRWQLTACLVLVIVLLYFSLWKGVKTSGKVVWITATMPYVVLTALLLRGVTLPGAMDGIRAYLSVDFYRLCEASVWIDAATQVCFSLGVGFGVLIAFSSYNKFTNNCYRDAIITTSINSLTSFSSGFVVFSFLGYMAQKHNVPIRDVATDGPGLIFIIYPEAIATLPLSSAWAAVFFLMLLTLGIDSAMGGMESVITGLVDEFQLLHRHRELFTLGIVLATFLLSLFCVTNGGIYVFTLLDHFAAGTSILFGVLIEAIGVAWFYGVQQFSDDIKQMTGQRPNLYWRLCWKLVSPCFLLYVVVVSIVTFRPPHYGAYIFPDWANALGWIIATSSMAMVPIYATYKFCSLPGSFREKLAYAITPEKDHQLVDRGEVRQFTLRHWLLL
Assay Method Text: Displacement of [3H]WIN 35428 from Sprague-Dawley rat striatal tissue after 2 hrs by liquid scintillation counting
Assay type: tissue-based, Striatum
Condition Notes: read-out: IC50
Kindly provide the numeric value in µM only, without the unit symbol.

Inquiry: Returns the measured IC50 for the input compound. Input: C#CCN1CCCC[C@@H]1[C@H](C(=O)OC)c1ccccc1 (racemic)
Reply text: 0.821

Inquiry: Returns the measured IC50 for the input compound. Input: `COC(=O)[C@H](c1ccccc1Br)[C@@]1(C)CCCCN1`
Reply text: 1.87

Inquiry: Returns the measured IC50 for the input compound. Input: COC(=O)[C@H](c1ccccc1)[C@H]1CCCCN1CCCCCCc1ccccc1 (racemic)
Reply text: 0.656

Inquiry: Returns the measured IC50 for the input compound. Input: O=C(OCc1ccccc1)[C@H](c1ccccc1)[C@H]1CCCCN1 (racemic)
Reply text: 1.02

Inquiry: Returns the measured IC50 for the input compound. Input: CCc1ccc([C@@H](C(=O)OC)[C@H]2CCCCN2)cc1 (racemic)
Reply text: 0.737

###

Assayed Target: UniProt P23977
Assay Method Text: Displacement of [3H]WIN 35428 from Sprague-Dawley rat striatal tissue after 2 hrs by liquid scintillation counting
Format: tissue-based, Striatum
Condition Notes: read-out: IC50
# label = 1 if IC50 < 400 nM else 0

Inquiry: Input COC(=O)[C@H](c1ccccc1)[C@H]1CCCCN1CCc1ccccc1 (racemic) ; condition: IC50 strictly below 400 nM. Does it hold?
Reply text: 0

Inquiry: Input NC(=O)[C@H](c1ccccc1)[C@H]1CCCCN1 (racemic) ; condition: IC50 strictly below 400 nM. Does it hold?
Reply text: 0

Inquiry: Input OC[C@H](c1ccccc1)[C@H]1CCCCN1CCCCc1ccccc1 (racemic) ; condition: IC50 strictly below 400 nM. Does it hold?
Reply text: 0

Inquiry: Input CN(C)C(=O)[C@H](c1ccccc1)[C@H]1CCCCN1Cc1ccccc1 (racemic) ; condition: IC50 strictly below 400 nM. Does it hold?
Reply text: 0

Inquiry: Input COC(=O)[C@H](c1ccccc1)[C@H]1CCCCN1Cc1ccc(N=C=S)cc1 (racemic) ; condition: IC50 strictly below 400 nM. Does it hold?
Reply text: 0

Inquiry: Input COC(=O)[C@H](c1ccccc1)[C@H]1CCCCN1CCCc1ccccc1 (racemic) ; condition: IC50 strictly below 400 nM. Does it hold?
Reply text: 1

Inquiry: Input COC(=O)[C@H](c1ccccc1)[C@H]1CCCCN1Cc1ccc(OC)cc1 (racemic) ; condition: IC50 strictly below 400 nM. Does it hold?
Reply text: 1

Inquiry: Input `OC[C@H](c1ccccc1)[C@H]1CCCCN1Cc1ccccc1` ; condition: IC50 strictly below 400 nM. Does it hold?
Reply text: 1

Inquiry: Input COC(=O)[C@H](c1ccccc1)[C@H]1CCCCN1Cc1cccnc1 (racemic) ; condition: IC50 strictly below 400 nM. Does it hold?
Reply text: 1

Inquiry: Input `COC(=O)[C@H](c1ccc2ccccc2c1)[C@H]1CCCCN1` ; condition: IC50 strictly below 400 nM. Does it hold?
Reply text: 1

Inquiry: Input COC(=O)[C@H](c1ccccc1)[C@H]1CCCCN1Cc1ccccn1 (racemic) ; condition: IC50 strictly below 400 nM. Does it hold?
Reply text: 1

Inquiry: Input COC(=O)[C@H](c1ccccc1)[C@H]1CCCCN1Cc1ccco1 (racemic) ; condition: IC50 strictly below 400 nM. Does it hold?
Reply text: 0

Inquiry: Input COC(=O)[C@H](c1ccc(Cl)c(Cl)c1)[C@H]1CCCCN1Cc1ccccc1 (racemic) ; condition: IC50 strictly below 400 nM. Does it hold?
Reply text: 1

Inquiry: Input OC[C@H](c1ccc(Cl)c(Cl)c1)[C@H]1CCCCN1Cc1ccccc1 (racemic) ; condition: IC50 strictly below 400 nM. Does it hold?
Reply text: 1

Inquiry: Input OC[C@H](c1ccccc1)[C@H]1CCCCN1 (racemic) ; condition: IC50 strictly below 400 nM. Does it hold?
Reply text: 0

Inquiry: Input COC(=O)[C@H](c1ccccc1)[C@H]1CCCCN1Cc1ccccc1Cl (racemic) ; condition: IC50 strictly below 400 nM. Does it hold?
Reply text: 1

Inquiry: Input CC(=O)OC[C@H](c1ccccc1)[C@H]1CCCCN1 (racemic) ; condition: IC50 strictly below 400 nM. Does it hold?
Reply text: 0

Inquiry: Input `COC(=O)[C@H](c1cccc(O)c1)[C@H]1CCCCN1` ; condition: IC50 strictly below 400 nM. Does it hold?
Reply text: 1

Inquiry: Input NC(=O)[C@H](c1ccc(Cl)c(Cl)c1)[C@H]1CCCCN1 (racemic) ; condition: IC50 strictly below 400 nM. Does it hold?
Reply text: 1

Inquiry: Input `COC(=O)[C@H](c1cccc(F)c1)[C@H]1CCCCN1` ; condition: IC50 strictly below 400 nM. Does it hold?
Reply text: 1

Inquiry: Input COC(=O)[C@H](c1ccccc1)[C@H]1CCCCN1Cc1ccncc1 (racemic) ; condition: IC50 strictly below 400 nM. Does it hold?
Reply text: 1

Inquiry: Input COC(=O)[C@H](c1cc(C)cc(C)c1)[C@H]1CCCCN1 (racemic) ; condition: IC50 strictly below 400 nM. Does it hold?
Reply text: 0

Inquiry: Input `COC(=O)[C@H](c1ccc(C(F)(F)F)cc1)[C@H]1CCCCN1` ; condition: IC50 strictly below 400 nM. Does it hold?
Reply text: 0

Inquiry: Input C=CCN1CCCC[C@@H]1[C@H](C(=O)OC)c1ccccc1 (racemic) ; condition: IC50 strictly below 400 nM. Does it hold?
Reply text: 0

Inquiry: Input `COC(=O)[C@H](c1cccc(Cl)c1)[C@H]1CCCCN1` ; condition: IC50 strictly below 400 nM. Does it hold?
Reply text: 1

Inquiry: Input `COC(=O)[C@H](c1ccccc1F)[C@H]1CCCCN1` ; condition: IC50 strictly below 400 nM. Does it hold?
Reply text: 0

Inquiry: Input `COC(=O)[C@H](c1ccc([N+](=O)[O-])cc1)[C@H]1CCCCN1` ; condition: IC50 strictly below 400 nM. Does it hold?
Reply text: 0

Inquiry: Input `COC(=O)[C@H](c1ccc(I)cc1)[C@H]1CCCCN1` ; condition: IC50 strictly below 400 nM. Does it hold?
Reply text: 1

Inquiry: Input `COC(=O)[C@H](c1ccc(F)cc1)[C@H]1CCCCN1` ; condition: IC50 strictly below 400 nM. Does it hold?
Reply text: 1

Inquiry: Input COC[C@H](c1ccc(Cl)c(Cl)c1)[C@H]1CCCCN1 (racemic) ; condition: IC50 strictly below 400 nM. Does it hold?
Reply text: 1

Inquiry: Input `COC(=O)[C@H](c1ccc(N)cc1)[C@H]1CCCCN1` ; condition: IC50 strictly below 400 nM. Does it hold?
Reply text: 1

Inquiry: Input COC(=O)[C@H](c1ccccc1)[C@H]1CCCCN1Cc1ccsc1 (racemic) ; condition: IC50 strictly below 400 nM. Does it hold?
Reply text: 1

Inquiry: Input `COC(=O)[C@H](c1cccc(Br)c1)[C@H]1CCCCN1` ; condition: IC50 strictly below 400 nM. Does it hold?
Reply text: 1

Inquiry: Input OC[C@H](c1ccccc1)[C@H]1CCCCN1CCCc1ccccc1 (racemic) ; condition: IC50 strictly below 400 nM. Does it hold?
Reply text: 1

Inquiry: Input COC(=O)[C@H](c1ccccc1)[C@H]1CCCCN1Cc1cccc(Cl)c1 (racemic) ; condition: IC50 strictly below 400 nM. Does it hold?
Reply text: 1

Inquiry: Input COC(=O)[C@H](c1cccc(Cl)c1)[C@H]1CCCCN1Cc1ccccc1 (racemic) ; condition: IC50 strictly below 400 nM. Does it hold?
Reply text: 1

Inquiry: Input COC(=O)[C@H](c1ccccc1)[C@H]1CCCCN1Cc1cccs1 (racemic) ; condition: IC50 strictly below 400 nM. Does it hold?
Reply text: 1

Inquiry: Input `COC(=O)[C@H](c1ccc(Cl)c(Cl)c1)[C@H]1CCCCN1` ; condition: IC50 strictly below 400 nM. Does it hold?
Reply text: 1

Inquiry: Input `COC(=O)[C@H](c1cccc(N)c1)[C@H]1CCCCN1` ; condition: IC50 strictly below 400 nM. Does it hold?
Reply text: 1

Inquiry: Input COC(=O)[C@H](c1ccccc1)[C@H]1CCCCN1Cc1ccoc1 (racemic) ; condition: IC50 strictly below 400 nM. Does it hold?
Reply text: 0

Inquiry: Input COC(=O)[C@H](c1ccccc1)[C@H]1CCCCN1CCCCCc1ccccc1 (racemic) ; condition: IC50 strictly below 400 nM. Does it hold?
Reply text: 0

Inquiry: Input COC(=O)[C@H](c1ccccc1)[C@H]1CCCCN1Cc1ccc(Cl)cc1 (racemic) ; condition: IC50 strictly below 400 nM. Does it hold?
Reply text: 1
